# assayedTarget: TLK2 (Homo sapiens (Human), UniProt Q86UE8)
# Sequence (Q86UE8 whole entry): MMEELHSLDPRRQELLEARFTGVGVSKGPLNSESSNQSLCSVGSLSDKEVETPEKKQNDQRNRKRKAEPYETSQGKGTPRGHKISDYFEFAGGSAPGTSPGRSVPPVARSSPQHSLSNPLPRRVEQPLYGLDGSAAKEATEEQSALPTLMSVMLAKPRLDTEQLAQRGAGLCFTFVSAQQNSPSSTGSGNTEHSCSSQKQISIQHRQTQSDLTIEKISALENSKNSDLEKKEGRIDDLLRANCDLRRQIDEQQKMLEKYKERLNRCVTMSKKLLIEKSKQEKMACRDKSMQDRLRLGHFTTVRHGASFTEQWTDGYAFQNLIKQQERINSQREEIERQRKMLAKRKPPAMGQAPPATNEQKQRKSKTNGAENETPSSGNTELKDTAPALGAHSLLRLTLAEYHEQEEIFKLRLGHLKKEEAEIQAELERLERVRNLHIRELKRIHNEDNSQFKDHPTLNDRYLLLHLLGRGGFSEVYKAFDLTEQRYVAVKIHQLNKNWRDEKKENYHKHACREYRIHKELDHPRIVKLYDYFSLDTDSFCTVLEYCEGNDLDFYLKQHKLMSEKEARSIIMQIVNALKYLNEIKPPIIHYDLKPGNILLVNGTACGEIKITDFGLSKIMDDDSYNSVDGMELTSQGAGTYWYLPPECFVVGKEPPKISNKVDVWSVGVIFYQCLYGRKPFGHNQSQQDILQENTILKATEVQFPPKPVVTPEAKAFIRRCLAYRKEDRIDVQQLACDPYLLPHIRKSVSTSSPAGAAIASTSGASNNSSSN
# runDescription: KINATIV assay
# Type: cell-based
# conditions: 1 μM, 90 minutes, BCWM.1 cells
endpointLabel: % change of MS signal compared to control sample (%)

>  <molecule>
C=CC(=O)N1CC[C@@H](Nc2nccc(Nc3ncc(C(=O)Nc4c(C)cccc4C)s3)n2)C1 [Example I-4]

>  <unitText>
%

>  <reading>
8.7

$$$$
>  <molecule>
C=CC(=O)N1CCC(Cn2ccc(Nc3ncc(C(=O)Nc4c(C)cccc4Cl)s3)n2)C1 (stereo not drawn) [II-1]

>  <unitText>
%

>  <reading>
7.3

$$$$
>  <molecule>
C=CC(=O)N1CCCCC(Nc2nccc(Nc3ncc(C(=O)Nc4c(C)cccc4C)s3)n2)C1 (stereo not drawn) [Example I-7]

>  <unitText>
%

>  <reading>
7.3

$$$$

###

List of EC50 values.
# Test system: Ramos
# runDescription: CellTiter-Glo Luminescent cell viability assay
# Format: cell-based
# conditions: cell survival, 72 hours

>  <molSmiles>
Cn1cc(Nc2nc3ccc(Oc4ccccc4)nc3s2)cn1

>  <EC50>
> 20 µM

$$$$
>  <molSmiles>
C=CC(=O)N1CCC[C@H](Nc2nccc(Nc3nc4ccc(Oc5ccccc5)nc4s3)n2)C1

>  <EC50>
8.46 µM

$$$$
>  <molSmiles>
C=CC(=O)N1CC[C@H](Nc2nccc(Nc3nc4ccc(Oc5ccccc5)nc4s3)n2)C1

>  <EC50>
3.7 µM

$$$$
>  <molSmiles>
C=CC(=O)N1CC[C@@H](Nc2nccc(Nc3nc4ccc(Oc5ccccc5)nc4s3)n2)C1

>  <EC50>
2.3 µM

$$$$

###

A short record of IC50 observed with BTK (Homo sapiens (Human), UniProt Q06187) follows.
Sequence (Q06187 whole entry, looked up): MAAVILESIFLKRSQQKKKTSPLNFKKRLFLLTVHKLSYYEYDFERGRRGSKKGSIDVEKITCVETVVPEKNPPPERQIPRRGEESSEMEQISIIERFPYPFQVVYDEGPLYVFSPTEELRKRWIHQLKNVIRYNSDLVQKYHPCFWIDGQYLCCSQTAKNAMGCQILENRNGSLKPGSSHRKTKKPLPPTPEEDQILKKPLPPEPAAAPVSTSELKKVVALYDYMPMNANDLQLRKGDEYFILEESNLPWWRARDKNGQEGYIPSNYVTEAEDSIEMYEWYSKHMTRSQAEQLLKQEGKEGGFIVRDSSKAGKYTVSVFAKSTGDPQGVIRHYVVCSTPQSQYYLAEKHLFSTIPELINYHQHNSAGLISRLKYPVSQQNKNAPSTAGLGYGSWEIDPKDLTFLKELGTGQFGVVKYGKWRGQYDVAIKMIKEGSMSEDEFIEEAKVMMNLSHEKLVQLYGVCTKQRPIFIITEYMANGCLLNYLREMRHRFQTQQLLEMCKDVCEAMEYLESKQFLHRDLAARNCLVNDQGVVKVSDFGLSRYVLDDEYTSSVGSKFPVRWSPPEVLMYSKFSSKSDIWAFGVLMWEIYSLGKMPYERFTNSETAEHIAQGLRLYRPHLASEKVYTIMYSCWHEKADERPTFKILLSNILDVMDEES
endpointLabel: IC50

>  <compound>
C=CC(=O)N1CCCC(Cn2ccc(Nc3ncc(C(=O)Nc4c(C)cccc4Cl)s3)n2)C1 (stereo not shown)

>  <reading>
< 0.495 nM

$$$$
>  <compound>
C=CC(=O)N1CCCCC(Nc2nccc(Nc3ncc(C(=O)Nc4c(C)cccc4C)s3)n2)C1 (stereo not shown)

>  <reading>
< 0.495 nM

$$$$
>  <compound>
C=CC(=O)N1CCC(CNc2nccc(Nc3ncc(C(=O)Nc4c(C)cccc4C)s3)n2)C1 (stereo not shown)

>  <reading>
< 0.495 nM

$$$$
>  <compound>
Cn1cc(Nc2nc3ccc(Oc4ccccc4)nc3s2)cn1

>  <reading>
> 10000 nM

$$$$

###

# Test system: OCI-Ly19
# runDescription: CellTiter-Glo Luminescent cell viability assay
# Type: cell-based
# conditions: cell survival, 72 hours
endpointLabel: log10 EC50 (log10 of the value in µM)

>  <molecule>
C=CC(=O)N1CCC[C@@H](Nc2nccc(Nc3nc4ccc(Oc5ccccc5)nc4s3)n2)C1 [III-4]

>  <reading>
0.07

$$$$
>  <molecule>
C=CC(=O)N1CCCCC(Nc2nccc(Nc3ncc(C(=O)Nc4c(C)cccc4Cl)s3)n2)C1 (centres unmarked) [Compound I-11]

>  <reading>
0.57

$$$$
>  <molecule>
C=CC(=O)N1CCC(Cn2ccc(Nc3ncc(C(=O)Nc4c(C)cccc4Cl)s3)n2)C1 (centres unmarked) [II-1]

>  <reading>
0.90

$$$$
>  <molecule>
Cn1ccc(Nc2nc3ccc(Oc4ccccc4)nc3s2)n1 [III-6]

>  <reading>
-0.49

$$$$
>  <molecule>
C=CC(=O)N1CC[C@H](Nc2nccc(Nc3nc4ccc(Oc5ccccc5)nc4s3)n2)C1 [III-1]

>  <reading>
0.10

$$$$
